Record form. Attribute: growth inhibition. Fill in for each entry.
- methodDescription: NCI Yeast Anticancer Drug Screen. Data for the rad50 strain (AID 155);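 further: 0% = growth of vehicle-only cultures of the same strain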
- conditionContext: S. cerevisiae rad50 strain growth inhibition; at 50.0 µM; hits give high values
This is part of a sample that, as a whole, favours compounds with a hit. Of some 79,000 tested, about 15% had one in any assay.
Numbers only, in %.

{"molecule": "O=C(O)C/C(=C\\c1ccccc1)C(=O)O", "quantityKind": "growth inhibition", "unitText": "%", "measured": -3.15}

Would you mind giving growth inhibition for every molecule in the list below?
1. Cc1c(C(C)c2[nH]c3ccccc3c2C)[nH]c2ccccc12
2. CCCCCCC(Br)CCCC (centres undefined)
3. CCCCn1c2nc3ccccc3c-2nc2cc(OC)c(OC)cc21
4. Clc1ccc2noc(-c3ccccc3)c2c1
5. CCCCCCCCCCCCS(=O)(=O)N/N=C(\c1ccccc1Cl)N1CCOCC1

Result:
[8.1, 15.6, 26.1, 22.6, 48.2]

# batch: return growth inhibition for each of the 8 molecules below
1. O=c1c2cc(S(=O)(=O)Nc3ccccc3Cl)ccc2ncn1NS(=O)(=O)c1ccc(Br)cc1
2. O=C(COc1ccc(Cl)cc1C(=O)O)NCc1ccc([N+](=O)[O-])cc1
3. COc1ccc(-c2cc(=O)c3c(O)cc(O)c(-c4cc(-c5cc(=O)c6c(O)cc(OC)cc6o5)ccc4OC)c3o2)cc1
4. CC1CCc2nc(N)sc2C1 (centres undefined)
5. Cc1ccc(S(=O)(=O)Nn2nnnc2N)cc1
6. CCOc1ccc(NC(=O)C(=O)CC(=O)C2=C(C)Nc3ccccc3S2)cc1
7. COC(=O)C1=C(C)NC(C)=C(C(=O)OC)C1c1cccc(NO)c1
8. O=c1[nH]c2nc3ccccc3c(=O)n2/c1=C/c1cccs1

Result:
1. 35.2
2. -9.45
3. 39.1
4. 14.4
5. -7.85
6. 27.6
7. 9.6
8. 28.9

Hi there! I need growth inhibition for each item below, if you can.
1. OCCN(Cc1ccccc1)C(c1ccccc1)c1ccccc1
2. CCCc1cc(=O)oc2c(C=O)c(O)cc(O)c12
3. c1cc(Sc2nc(Sc3ccncc3)nc(Sc3ccncc3)n2)ccn1
4. CC(=O)OCC1OC=CC(OC(C)=O)C1OC(C)=O (centres undefined)
5. COc1nc(OC)c2[nH]cnc2n1

Result:
1. 98.8
2. 37.9
3. 5.15
4. -23.1
5. 17.6

====

I'd be grateful if you could share measured growth inhibition for these entries.
- methodDescription: NCI Yeast Anticancer Drug Screen. Data for the cln2 rad14 strain (AID 165);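 further: 0% = growth equal to vehicle treated cultures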
- conditionContext: S. cerevisiae cln2 rad14 strain, at 50.0 µM, hits give high values
- Protocol: Growth inhibition of yeast strains with defined genetic alterations is measured as a screen for potential anti-cancer activity. Selected strains with alterations in DNA damage repair or cell cycle control were exposed to compounds and growth inhibition was measured relative to vehicle treated controls. The strain used in this assay is cln2 rad14
The panel holds about 79,000 compounds, 15% with a hit somewhere; the sample as a whole holds those more often.
Give bare numbers, in %.

{"compound": "COc1ccc(C(=O)CC(C#N)c2ccccc2Cl)cc1 (stereo not given)", "growth inhibition [%]": 13.1}
{"compound": "COc1ccc(/C=[N+](\\[O-])c2ccccc2)cc1 (tested in a mixture with another compound)", "growth inhibition [%]": 0.4}
{"compound": "CCOc1ccc(N2C(=O)C(=O)C(C#N)(c3nc4ccccc4o3)C(=O)C2=O)cc1", "growth inhibition [%]": 6}

Count: 6. Required value per item: growth inhibition.
1. CC(=O)N(C(C)=O)c1ccc2c3c(cccc13)CC2
2. Cc1cccc(NC(=O)CCCCCCCCC(=O)Nc2cccc(C)c2C)c1C
3. Cc1ccc(S(=O)(=O)NC(=O)Nc2c(-c3nc4ccccc4s3)[n+]([O-])c3ccccc3[n+]2[O-])cc1
4. O=C(O)/C(=C/c1ccc([N+](=O)[O-])cc1)c1ccc([N+](=O)[O-])cc1
5. C#CC[N+](C)(CC#C)CC#C
6. O=C(/C=C/c1ccc(OCc2ccccc2)c(OCc2ccccc2)c1)OCc1ccccc1

Result:
1: -19.1; 2: -41.4; 3: 30.4; 4: -35.4; 5: 11.9; 6: -33.9

Q: In one line, give reported growth inhibition of the entry Cc1ccccc1N(C)S(=O)(=O)c1ccccc1[N+](=O)[O-] .
Result: -5.6

====

- methodDescription: NCI Yeast Anticancer Drug Screen. Data for the cln2 rad14 strain (AID 165);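 further: 0% = growth equal to vehicle treated cultures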
- conditionContext: S. cerevisiae cln2 rad14 strain, at 50.0 µM, hits give high values
The panel holds about 79,000 compounds, 15% with a hit somewhere; the sample as a whole holds those more often.
Please respond with reported growth inhibition for every item in the list.
Numbers only, in %.

Would you please look over these solved cases?
{"molecule": "COC(=O)c1ccc(Cl)nc1", "measured": -6.75}
{"molecule": "[Cl][Ge]([Cl])([c]1ccccc1)[c]1ccccc1", "measured": 12.8}
{"molecule": "CCOC(=O)C1(C)Sc2ccccc2N=C1c1ccccc1 (stereo unspecified)", "measured": 7.35}
{"molecule": "COc1cc(CC2COC(=O)C2Cc2ccc(O)c(OC)c2)ccc1O (stereo unspecified)", "measured": -15.8}
{"molecule": "Brc1ccc(-c2nnc(-c3ccc(Br)cc3)o2)cc1", "measured": -4.7}

Now let's try a different one.
Q: Note growth inhibition for the molecule shown: COc1ccccc1CNCCCCCNCCCCCCCCCCNCCCCCNCc1ccccc1OC
Result: -9.1

====

Give measured growth inhibition for each item. Keep answers brief.
- methodDescription: NCI Yeast Anticancer Drug Screen. Data for the bub3 strain (AID 167)
- conditionContext: S. cerevisiae bub3 mutant strain, at 50.0 µM, hits give high values
This is part of a sample that, as a whole, favours compounds with a hit. Of some 79,000 tested, about 15% had one in any assay.
Numbers only, in %.

{"molecule": "O=C(NC(=O)c1ccccc1F)Nc1ccc(Cl)cc1", "measured": 49.8}
{"molecule": "COC(=O)/C(C#N)=C1\\CCC(O)N1C (configuration not stated)", "measured": 3}
{"molecule": "CCOC(=O)N1C2c3ccccc3C3C(C21)N3C(=O)OCC (configuration not stated)", "measured": 3.9}
{"molecule": "CC1C(=O)OC(C)(C)C1(C)C (configuration not stated)", "measured": 0.2}
{"molecule": "CC1CCC(C(C)C)C(OS(=O)(=O)c2ccccc2)C1 (configuration not stated)", "measured": 11.6}
{"molecule": "CCCCC(CC)COB(OCC(CC)CCCC)OCC(CC)CCCC (configuration not stated)", "measured": -23.2}

List the reported growth inhibition of each molecule below.
1. CC(=O)Nc1ccc(O)c(C(=O)O)c1
2. O=[N+]([O-])c1cccc([I+]c2cccc([N+](=O)[O-])c2)c1

Result:
1. 24.1
2. 97.2

====

- methodDescription: NCI Yeast Anticancer Drug Screen. Data for the bub3 strain (AID 167)
- conditionContext: S. cerevisiae bub3 mutant strain, at 50.0 µM, hits give high values
This is part of a sample that, as a whole, favours compounds with a hit. Of some 79,000 tested, about 15% had one in any assay.
quantityKind: growth inhibition (%)
Give bare numbers, in %.

# example entries with known answers
{"compound": "CS(=O)(=O)OC1COCC1OS(C)(=O)=O (centres undefined)", "quantityKind": "growth inhibition", "measured": -5.3}
{"compound": "CCCCCCC1(/C=C/c2ccc(Cl)cc2Cl)OCCCO1", "quantityKind": "growth inhibition", "measured": 11.8}
{"compound": "COC(=O)C1=C(C)NC(C)=C(C(=O)OC)C1c1cccc(NO)c1", "quantityKind": "growth inhibition", "measured": 43.3}
{"compound": "CSc1cc(C)n2nnnc2n1", "quantityKind": "growth inhibition", "measured": -3.75}
{"compound": "COC(=O)C1C(=O)CC2CCCCC21 (centres undefined)", "quantityKind": "growth inhibition", "measured": -22.3}

Report growth inhibition for each item below.
1. c1ccc(Cn2nnnc2Nc2ccccc2)cc1
2. CCOC(=O)c1ccc(-n2c(SCC)nc3sc(C)c(C)c3c2=O)cc1
3. COc1ccc(CCC(O)c2ccccc2)cc1 (centres undefined)
4. C/C(=C(/O)c1ccc(Cl)cc1)c1nc2cc(Cl)cc([N+](=O)[O-])c2[nH]c1=O
5. O=[N+]([O-])c1ccn(O)c(=Nc2ccccc2)c1
6. O=[N+]([O-])c1ccc(-c2nc3ccc(Cl)cc3[nH]2)cc1
7. CCc1n[nH]c(=O)n1N1C(=O)CCC1=O

Result:
[26.4, -31.8, 19.3, 18.9, -14.9, 9.55, -23.8]

Please give growth inhibition for each item listed below.
1. O=C1NC(=O)C(=O)N1
2. CCCCCCCCS(=O)(=O)N(C)C
3. NC(N)=NS(=O)(=O)c1ccc(Nc2c3ccccc3nc3c(C(=O)NNCCO)cccc23)cc1
4. COc1c(C)cc(-c2cc(C)c(OC)c(C)c2)cc1C
5. Cc1ccnc2[nH]c(-c3cccc(Cl)c3)cc(=O)c12
6. O=[N+]([O-])c1cc(Cl)ccc1NC(Nc1ccc(Cl)cc1[N+](=O)[O-])C(Cl)(Cl)Cl
7. O=[N+]([O-])c1ccc(Nc2ccccc2)nc1
8. C[N+](C)(C[Si](C)(C)C)C1CCCCCCCCCCC1

Result:
[27.8, -31.1, 15.9, -8.8, -24.8, 3.6, -5.5, 14.1]
